target: T1, full length recombinant human 2N4R tau (amino acids 1-441) (human, UniProt P10636 1-758); test: SPR Biacore SCK, IgG on Protein A, tau analyte
T1 construct: Bought (rPeptide); recombinant, non-phosphorylated; also called recombinant tau
T1 sequence (P10636 other isoform, or with tags, fused parts or gaps limits assumed): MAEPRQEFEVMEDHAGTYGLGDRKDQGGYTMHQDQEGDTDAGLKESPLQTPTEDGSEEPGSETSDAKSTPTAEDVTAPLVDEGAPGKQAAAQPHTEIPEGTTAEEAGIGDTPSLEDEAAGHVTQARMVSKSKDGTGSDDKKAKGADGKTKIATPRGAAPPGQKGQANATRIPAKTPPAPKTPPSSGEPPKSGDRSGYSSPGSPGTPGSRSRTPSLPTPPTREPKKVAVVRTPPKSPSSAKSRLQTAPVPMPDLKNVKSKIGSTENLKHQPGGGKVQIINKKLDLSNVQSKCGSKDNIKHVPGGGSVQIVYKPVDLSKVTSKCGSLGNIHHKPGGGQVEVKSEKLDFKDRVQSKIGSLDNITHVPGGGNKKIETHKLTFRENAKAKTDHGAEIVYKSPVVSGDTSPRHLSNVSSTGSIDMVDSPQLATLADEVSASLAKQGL
// reported Relative KD per item
EXPERIMENTAL READOUT: Relative KD

[[record]]
binder = "Clone 27 (VH4Vκ2), humanised variant of clone #28, human IgG1 (antibody, V domains shown, also called VH4VK2; VH4Vk2) VH: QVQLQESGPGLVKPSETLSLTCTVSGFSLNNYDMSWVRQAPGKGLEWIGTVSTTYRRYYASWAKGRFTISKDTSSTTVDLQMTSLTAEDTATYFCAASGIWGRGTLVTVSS VL: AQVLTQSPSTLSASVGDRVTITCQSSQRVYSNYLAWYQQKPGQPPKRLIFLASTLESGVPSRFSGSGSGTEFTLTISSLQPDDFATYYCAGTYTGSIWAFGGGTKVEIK"
experimental_readout = "Relative KD"
measured_value = "1.51 fold vs VH0VK0"

[[record]]
binder = "Clone 23 (VH3Vκ2), humanised variant of clone #28, human IgG1 (antibody, V domains shown, also called VH3VK2) VH: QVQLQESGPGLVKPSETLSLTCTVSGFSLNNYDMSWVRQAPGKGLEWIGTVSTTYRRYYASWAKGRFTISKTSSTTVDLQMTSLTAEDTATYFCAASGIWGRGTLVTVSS VL: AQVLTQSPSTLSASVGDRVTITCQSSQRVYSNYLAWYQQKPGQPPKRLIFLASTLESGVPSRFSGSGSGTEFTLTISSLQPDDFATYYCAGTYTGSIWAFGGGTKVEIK"
experimental_readout = "Relative KD"
measured_value = "1.13 fold vs VH0VK0"

[[record]]
binder = "Clone 20 (VH2Vκ4), humanised variant of clone #28, human IgG1 (antibody, V domains shown, also called VH2VK4) VH: QSLQESGPGLVKPSETLSLTCTVSGFSLNNYDMSWVRQAPGKGLEWIGTVSTTYRRYYASWAKGRFTISKTSSTTVDLQMTSLTAEDTATYFCAASGIWGRGTLVTVSS VL: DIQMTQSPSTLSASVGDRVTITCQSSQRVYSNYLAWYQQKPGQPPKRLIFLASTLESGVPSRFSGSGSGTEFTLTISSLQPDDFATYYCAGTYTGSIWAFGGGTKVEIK"
experimental_readout = "Relative KD"
measured_value = "0.84 fold vs VH0VK0"

